- Test system: NCI-H23 complex spheroids with HUVEC/MSC, viability
- experiment-summary: Anticancer human tumor NCI-H23 cell line growth inhibition [RAS];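 also: spheroids exposed to compound for 7 days; 100% = DMSO vehicle control viability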
- experimental-parameters: compound 3.16 µM; hits give low values
reported-metric: viability, T/C

{"compound": "CC(C)NCC(C(=O)N1CCN(c2ncnc3c2C(C)CC3O)CC1)c1ccc(Cl)cc1 (centres undefined)", "viability, T/C": "73.3% [middle of 4 runs]"}
{"compound": "Cc1nc(N2CCC3(CC2)COC(C)C3N)c(CO)nc1Sc1ccnc(N)c1Cl (centres undefined)", "viability, T/C": "52.3% [middle of 4 runs]"}

Please state viability, T/C for every compound in the list that follows.
1. CC(Nc1ccc2c(c1)OCCn1cc(N3C(=O)OCC3C(F)F)nc1-2)C(N)=O (centres undefined)
2. NC1c2ccccc2OC12CCN(c1cnc3c(N4CCCc5ncccc54)n[nH]c3n1)CC2 (centres undefined)

1. 71.8% [middle of 4 runs]
2. 41.3% [middle of 4 runs]

---

Assignment: determine reported viability, T/C for the given compounds.
- Tested on: NCI-H23 complex spheroids with HUVEC/MSC, viability
- experiment-summary: Anticancer human tumor NCI-H23 cell line growth inhibition [RAS];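 also: spheroids exposed to compound for 7 days; 100% = DMSO vehicle control viability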
- experimental-parameters: second compound 0.0949 µM; first compound 0.000949 µM; hits give low values
One number for each entry, in %.

Some compounds with known viability, T/C results, for comparison:
{"compound": "CCc1c2c(nc3ccc(O)cc13)-c1cc3c(c(=O)n1C2)COC(=O)[C@]3(O)CC + CCn1c(-c2cc(N3CCN(C)CC3)cnc2C(C)OC)c2c3cc(ccc31)-c1csc(n1)CC(NC(=O)C1CC1C)C(=O)N1CCCC(N1)C(=O)OCC(C)(C)C2", "system": "NCI-H23 complex spheroids with HUVEC/MSC, viability", "viability, T/C / %": 16}
{"compound": "CC1(C)CCC(Nc2ncc(C(F)(F)F)c(-c3c[nH]c4c(P(C)(C)=O)c(C#N)ccc34)n2)CN1 (centres undefined) + CCn1c(-c2cccnc2C(C)OC)c2c3cc(ccc31)N1CCOC(CC(NC(=O)C(C(C)C)N(C)C(=O)C3(F)CCN(C(=O)C#CC(C)(C)N(C)C)CC3)C(=O)N3CCCC(N3)C(=O)OCC(C)(C)C2)C1", "system": "NCI-H23 complex spheroids with HUVEC/MSC, viability", "viability, T/C / %": 21.8}
{"compound": "CC1(C)CCC(Nc2ncc(C(F)(F)F)c(-c3c[nH]c4c(P(C)(C)=O)c(C#N)ccc34)n2)CN1 (centres undefined) + CCn1c(-c2cc(N3CCN(C)CC3)cnc2C(C)OC)c2c3cc(ccc31)-c1csc(n1)CC(NC(=O)C1CC1C)C(=O)N1CCCC(N1)C(=O)OCC(C)(C)C2", "system": "NCI-H23 complex spheroids with HUVEC/MSC, viability", "viability, T/C / %": 15}

Proceeding to the next compound to report its viability, T/C.
# viability, T/C lookup, item CCc1c2c(nc3ccc(O)cc13)-c1cc3c(c(=O)n1C2)COC(=O)[C@]3(O)CC + CCn1c(-c2cccnc2C(C)OC)c2c3cc(ccc31)N1CCOC(CC(NC(=O)C(C(C)C)N(C)C(=O)C3(F)CCN(C(=O)C#CC(C)(C)N(C)C)CC3)C(=O)N3CCCC(N3)C(=O)OCC(C)(C)C2)C1 23.6

---

- Test system: NCI-H23 complex spheroids with HUVEC/MSC, viability
- experiment-summary: Anticancer human tumor NCI-H23 cell line growth inhibition [RAS];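 also: spheroids exposed to compound for 7 days; 100% = DMSO vehicle control viability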
- experimental-parameters: second compound 0.3 µM; first compound 0.0316 µM; hits give low values
- From the text: RAS pathway inhibitors in Combinations in Complex Spheroids A high-throughput screen of multi-cell type tumor spheroids was designed to identify active combinations of RAS pathway inhibitors and targeted small molecules. Complex spheroids include a stromal component modeled by human endothelial cells (HUVEC) and fibroblasts modeled by human mesenchymal stem cells (MSCs). […] Compounds. […] If the clinical Cmax for an agent had not been determined, the highest concentration tested was 10 microM. […]
reported-metric: viability, T/C (%)
Give bare numbers, in %.

Solved entries (count: 3):
{"compound": "C=CC(=O)Nc1cc(Nc2nccc(-c3cn(C)c4ccccc34)n2)c(OC)cc1N(C)CCN(C)C + CCn1c(-c2cccnc2C(C)OC)c2c3cc(ccc31)N1CCOC(CC(NC(=O)C(C(C)C)N(C)C(=O)C3(F)CCN(C(=O)C#CC(C)(C)N(C)C)CC3)C(=O)N3CCCC(N3)C(=O)OCC(C)(C)C2)C1", "viability, T/C / %": 24.6}
{"compound": "CCC(CC)c1cc(NC2CCC(N)C2)n2nccc2n1 (centres undefined) + CCn1c(-c2cc(N3CCN(C)CC3)cnc2C(C)OC)c2c3cc(ccc31)-c1csc(n1)CC(NC(=O)C1CC1C)C(=O)N1CCCC(N1)C(=O)OCC(C)(C)C2", "viability, T/C / %": 19}
{"compound": "Nc1ccn(C2OC(CO)C(O)C2(F)F)c(=O)n1 (centres undefined) + CCn1c(-c2cc(N3CCN(C)CC3)cnc2C(C)OC)c2c3cc(ccc31)-c1csc(n1)CC(NC(=O)C1CC1C)C(=O)N1CCCC(N1)C(=O)OCC(C)(C)C2", "viability, T/C / %": 3.63}

For the next question, use this compound.
Request the reported viability, T/C associated with CC(C)NCC(C(=O)N1CCN(c2ncnc3c2C(C)CC3O)CC1)c1ccc(Cl)cc1 (centres undefined) + CCn1c(-c2cccnc2C(C)OC)c2c3cc(ccc31)N1CCOC(CC(NC(=O)C(C(C)C)N(C)C(=O)C3(F)CCN(C(=O)C#CC(C)(C)N(C)C)CC3)C(=O)N3CCCC(N3)C(=O)OCC(C)(C)C2)C1 21.4

---

- System: NCI-H23 complex spheroids with HUVEC/MSC, viability
- experiment-summary: Anticancer human tumor NCI-H23 cell line growth inhibition [RAS];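 also: spheroids exposed to compound for 7 days; 100% = DMSO vehicle control viability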
- experimental-parameters: second compound 0.1 µM; first compound 1 µM; hits give low values
Provide the recorded viability, T/C for the entries that follow.
Numbers only, in %.

{"compound": "Cc1nc(N2CCC3(CC2)COC(C)C3N)c(CO)nc1Sc1ccnc(N)c1Cl (configuration not stated) + C=CC(=O)N1CCN(c2nc(OCC3CCCN3C)nc3c(F)c(-c4nc(N)cc(C)c4C(F)(F)F)c(Cl)cc23)C(C)C1", "reported-metric": "viability, T/C", "value-units": "%", "observed-measurement": 23.9}
{"compound": "CCN1CCN(Cc2ccc(Nc3ncc(F)c(-c4cc(F)c5nc(C)n(C(C)C)c5c4)n3)nc2)CC1 + C=CC(=O)N1CCN(c2nc(OCC3CCCN3C)nc3c(F)c(-c4nc(N)cc(C)c4C(F)(F)F)c(Cl)cc23)C(C)C1", "reported-metric": "viability, T/C", "value-units": "%", "observed-measurement": 18.3}

Batch of 4 compounds: report viability, T/C for each.
1. CC(=O)OC12COC1CC(O)C1(C)C(=O)C(O)C3=C(C)C(OC(=O)C(O)C(NC(=O)OC(C)(C)C)c4ccccc4)CC(O)(C(OC(=O)c4ccccc4)C21)C3(C)C (configuration not stated) + C=CC(=O)N1CCN(c2nc(OCC3CCCN3C)nc3c(F)c(-c4nc(N)cc(C)c4C(F)(F)F)c(Cl)cc23)C(C)C1
2. O=C(c1ccc(F)c(F)c1Nc1ccc(I)cc1F)N1CC(O)([C@@H]2CCCCN2)C1 + C#Cc1c(F)ccc2cc(O)cc(-c3ncc4c(N5CC6CCC(C5)N6)nc(OCC56CCCN5CC(F)C6)nc4c3F)c12
3. CCC(CC)c1cc(NC2CCC(N)C2)n2nccc2n1 (configuration not stated) + C#Cc1c(F)ccc2cc(O)cc(-c3ncc4c(N5CC6CCC(C5)N6)nc(OCC56CCCN5CC(F)C6)nc4c3F)c12
4. C[C@@H](NC(=O)c1ncnc(N)c1Cl)c1ncc(C(=O)Nc2cc(C(F)(F)F)c(Cl)cn2)s1 + C#Cc1c(F)ccc2cc(O)cc(-c3ncc4c(N5CC6CCC(C5)N6)nc(OCC56CCCN5CC(F)C6)nc4c3F)c12

1. 14.9
2. 21.6
3. 90.9
4. 99.5

Look up viability, T/C for this compound: C=CC(=O)Nc1cc(Nc2nccc(-c3cn(C)c4ccccc34)n2)c(OC)cc1N(C)CCN(C)C + C#Cc1c(F)ccc2cc(O)cc(-c3ncc4c(N5CC6CCC(C5)N6)nc(OCC56CCCN5CC(F)C6)nc4c3F)c12 112

---

- System: NCI-H23 complex spheroids with HUVEC/MSC, viability
- experiment-summary: Anticancer human tumor NCI-H23 cell line growth inhibition [RAS];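 also: spheroids exposed to compound for 7 days; 100% = DMSO vehicle control viability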
- experimental-parameters: second compound 0.0316 µM; first compound 0.01 µM; hits give low values
- Text: RAS pathway inhibitors in Combinations in Complex Spheroids A high-throughput screen of multi-cell type tumor spheroids was designed to identify active combinations of RAS pathway inhibitors and targeted small molecules. Complex spheroids include a stromal component modeled by human endothelial cells (HUVEC) and fibroblasts modeled by human mesenchymal stem cells (MSCs). […] Compounds. […] If the clinical Cmax for an agent had not been determined, the highest concentration tested was 10 microM. […]
Record form. Attribute: viability, T/C. Fill in for each entry.
Give bare numbers, in %.

Known viability, T/C results, listed for orientation:
{"compound": "CC(C)n1nc(-c2ccc3oc(N)nc3c2)c2c(N)ncnc21 + C#Cc1c(F)ccc2cc(O)cc(-c3ncc4c(N5CC6CCC(C5)N6)nc(OCC56CCCN5CC(F)C6)nc4c3F)c12", "observed-measurement": 73.9}
{"compound": "O=C(c1ccc(F)c(F)c1Nc1ccc(I)cc1F)N1CC(O)([C@@H]2CCCCN2)C1 + C#Cc1c(F)ccc2cc(O)cc(-c3ncc4c(N5CC6CCC(C5)N6)nc(OCC56CCCN5CC(F)C6)nc4c3F)c12", "observed-measurement": 105}
{"compound": "C=CC(=O)Nc1cc(Nc2nccc(-c3cn(C)c4ccccc34)n2)c(OC)cc1N(C)CCN(C)C + C#Cc1c(F)ccc2cc(O)cc(-c3ncc4c(N5CC6CCC(C5)N6)nc(OCC56CCCN5CC(F)C6)nc4c3F)c12", "observed-measurement": 128}
{"compound": "CCN1CCN(Cc2ccc(Nc3ncc(F)c(-c4cc(F)c5nc(C)n(C(C)C)c5c4)n3)nc2)CC1 + C=CC(=O)N1CCN(c2nc(OCC3CCCN3C)nc3c(F)c(-c4nc(N)cc(C)c4C(F)(F)F)c(Cl)cc23)C(C)C1", "observed-measurement": 37.3}
{"compound": "C=CC(=O)N1CCN(c2nc(OCC3CCCN3C)nc3c(F)c(-c4nc(N)cc(C)c4C(F)(F)F)c(Cl)cc23)C(C)C1 (stereo unspecified) + C#Cc1c(F)ccc2cc(O)cc(-c3ncc4c(N5CC6CCC(C5)N6)nc(OCC56CCCN5CC(F)C6)nc4c3F)c12", "observed-measurement": 52.6}

Attention now shifts to the item below.
Tell me the measured viability, T/C of O=C(c1ccc(F)c(F)c1Nc1ccc(I)cc1F)N1CC(O)([C@@H]2CCCCN2)C1 + C=CC(=O)N1CCN(c2nc(OCC3CCCN3C)nc3c(F)c(-c4nc(N)cc(C)c4C(F)(F)F)c(Cl)cc23)C(C)C1 , please. 48.9
